The following compounds are listed with their measured DC50 values.
# study target: IRAK4 (Homo sapiens)
# Construct: 293Tcells expressing HiBiT-tagged IRAK4 were then added into 384-well plates
# protocol text: IRAK4 Degradation Assay, HiBiT Method
# Format: cell-based
# applied conditions: 293T cells expressing HiBiT-tagged IRAK4, 6 hours
endpoint label: DC50

compound="CC(C)Oc1cc2nc(C3CCN(C(=O)CC4(O)CCN(c5cc(F)c(NC6CCC(=O)NC6=O)cc5F)CC4)CC3)cn2cc1C(=O)Nc1cccc(C(F)(F)F)n1 (centres unmarked)" value_reported="10 to 100 nM"
compound="CC(C)Oc1cc2nc(C3CCN(C(=O)CC4(O)CCN(c5cc(F)c(NC6CCC(=O)NC6=O)cc5F)CC4)CC3)cn2cc1C(=O)Nc1cccc(C(F)F)n1 (centres unmarked)" value_reported="< 10 nM"
compound=CC(C)Oc1cc2nn([C@H]3CC[C@H](CN4CCN(c5ccn6c(N7CCC(=O)NC7=O)cnc6c5)CC4)CC3)cc2cc1C(=O)Nc1cccn([C@H]2C[C@H]2F)c1=O value_reported="< 10 nM"
compound="CC(C)Oc1cc2nc(C3(C)CCN(CC(=O)N4CCC(c5ccc(NC6CCC(=O)NC6=O)cc5)CC4)CC3)cn2cc1C(=O)Nc1cccc(C(F)(F)F)n1 (centres unmarked)" value_reported="100 to 500 nM"
compound=CO[C@H]1CN(C[C@H]2CC[C@H](c3cn4cc(C(=O)Nc5cccn([C@H]6C[C@H]6F)c5=O)c(OC(C)C)cc4n3)CC2)CC[C@H]1c1ccc2c(N3CCC(=O)NC3=O)nn(C)c2c1 value_reported="< 10 nM"
compound=CC(C)Oc1cc2nc([C@H]3CC[C@H](CN4CCC(c5ccc6c(N7CCC(=O)NC7=O)nn(C)c6c5)CC4)CC3)cn2cc1C(=O)Nc1cccc(C(F)F)n1 value_reported="< 10 nM"
compound="CC(C)Oc1cc2nc([C@H]3CC[C@H](CN4CCC(c5ccc6c(c5)n(C)c(=O)n6C5CCC(=O)NC5=O)CC4)CC3)cn2cc1C(=O)Nc1cccc(C(F)F)n1 (some centres unmarked)" value_reported="< 10 nM"
compound="CC(C)Oc1cc2nc(C3CCN(C(=O)CC4CCN(c5ccc(C6CCC(=O)NC6=O)cn5)CC4)CC3)cn2cc1C(=O)Nc1cccn([C@H]2C[C@H]2F)c1=O (some centres unmarked)" value_reported="< 10 nM"
compound="CC(C)Oc1cc2nc(C3CCN(C(=O)CC4(O)CCN(c5cc(Cl)c(NC6CCC(=O)NC6=O)cc5Cl)CC4)CC3)cn2cc1C(=O)Nc1cccc(C(F)F)n1 (centres unmarked)" value_reported="10 to 100 nM"
compound="CC(C)Oc1cc2nn(C3CCN(C(=O)CC4(O)CCN(c5cnc6c(c5)n(C)c(=O)n6C5CCC(=O)NC5=O)CC4)CC3)cc2cc1C(=O)Nc1cccn([C@H]2C[C@H]2F)c1=O (some centres unmarked)" value_reported="10 to 100 nM"
compound="CC(C)Oc1cc2nn(C3CCN(C(=O)CN4CCC(c5ccc(NC6CCC(=O)NC6=O)cc5)CC4)CC3)cc2cc1C(=O)Nc1cnn2cccnc12 (centres unmarked)" value_reported="< 10 nM"

----------
# study target: IRAK4 (Homo sapiens, UniProt Q9NWZ3)
# Construct: 293Tcells expressing HiBiT-tagged IRAK4 were then added into 384-well plates
# Sequence (Q9NWZ3 whole entry): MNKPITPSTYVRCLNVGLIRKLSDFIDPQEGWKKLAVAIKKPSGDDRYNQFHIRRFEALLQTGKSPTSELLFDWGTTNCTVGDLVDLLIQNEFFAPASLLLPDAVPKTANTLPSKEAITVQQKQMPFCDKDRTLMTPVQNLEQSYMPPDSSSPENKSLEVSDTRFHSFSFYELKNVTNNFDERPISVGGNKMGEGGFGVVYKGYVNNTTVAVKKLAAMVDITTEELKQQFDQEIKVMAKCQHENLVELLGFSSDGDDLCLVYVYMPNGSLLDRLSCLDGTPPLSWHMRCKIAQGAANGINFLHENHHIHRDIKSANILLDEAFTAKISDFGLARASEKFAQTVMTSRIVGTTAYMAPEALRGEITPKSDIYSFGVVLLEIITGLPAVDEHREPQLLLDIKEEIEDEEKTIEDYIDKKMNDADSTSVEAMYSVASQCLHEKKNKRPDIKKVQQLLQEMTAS
# protocol text: IRAK4 Degradation Assay, HiBiT Method
# Assay type: cell-based
# applied conditions: 293T cells expressing HiBiT-tagged IRAK4, 6 hours
endpoint label: DC50

compound="CC(C)Oc1cc2nn([C@H]3CC[C@H](CN4CCOC[C@@H]4Cc4ccc(OC5CCC(=O)NC5=O)cc4)CC3)cc2cc1C(=O)Nc1cccn([C@H]2C[C@H]2F)c1=O (some centres unmarked) [Example 135]" value_reported="< 10 nM"
compound="CC(C)Oc1cc2nc([C@H]3CC[C@H](CN4CCC(c5ccc(CN6CCC(=O)NC6=O)cc5)CC4)CC3)cn2cc1C(=O)Nc1cccc(C(F)F)n1 [Example 37]" value_reported="10 to 100 nM"
compound="CC(C)Oc1cc2nc([C@H]3CC[C@H](CN(C)C4CCN(c5ccc(C6CCC(=O)NC6=O)cc5)CC4)CC3)cn2cc1C(=O)Nc1cccc(C(F)(F)F)n1 (some centres unmarked) [Example 13]" value_reported="10 to 100 nM"
compound="CC(C)Oc1cc2nc([C@H]3CC[C@H](CN(C)C4CCN(c5ccc6c(c5)n(C)c(=O)n6C5CCC(=O)NC5=O)CC4)CC3)cn2cc1C(=O)Nc1cccc(C(F)(F)F)n1 (some centres unmarked) [Example 10]" value_reported="10 to 100 nM"
compound="CC(C)Oc1cc2nc([C@H]3CC[C@H](CN4CC5(CCCN5Cc5ccc(OC6CCC(=O)NC6=O)cc5)C4)CC3)cn2cc1C(=O)Nc1cccc(C(F)F)n1 (some centres unmarked) [Example 46]" value_reported="10 to 100 nM"
compound="CC(C)Oc1cc2nn(C3CCN(C(=O)NC4CCN(c5ncc(C6CCC(=O)NC6=O)cc5F)CC4)CC3)cc2cc1C(=O)Nc1cccn([C@H]2C[C@H]2F)c1=O (some centres unmarked) [Example 154]" value_reported="< 10 nM"
compound="CC(C)Oc1cc2nc([C@H]3CC[C@H](CN4CCC(c5ccc(NC6CCC(=O)NC6=O)cc5F)CC4)CC3)cn2cc1C(=O)Nc1cccc(C(F)F)n1 (some centres unmarked) [Example 18]" value_reported="10 to 100 nM"
compound="CC(C)Oc1cc2nn([C@H]3CC[C@H](CN4CCN(c5ccc(C6CCC(=O)NC6=O)cn5)CC(O)C4)CC3)cc2cc1C(=O)Nc1cccn([C@H]2C[C@H]2F)c1=O (some centres unmarked) [Example 120]" value_reported="< 10 nM"
compound="CC(C)Oc1cc2nn([C@H]3CC[C@H](CN4CC[C@@H](c5ccc6c(N7CCC(=O)NC7=O)nn(C)c6c5)[C@H](O)C4)CC3)cc2cc1C(=O)Nc1cccn([C@H]2C[C@H]2F)c1=O [Example 132]" value_reported="< 10 nM"
compound="CC(C)Oc1cc2nc([C@H]3CC[C@H](CN4CCC(c5cccc(NC6CCC(=O)NC6=O)c5)CC4)CC3)cn2cc1C(=O)Nc1cccc(C(F)F)n1 (some centres unmarked) [Example 26]" value_reported="100 to 500 nM"
compound="CC(C)Oc1cc2nc([C@H]3CC[C@H](CN(C)C4CCN(Cc5cccc(NC6CCC(=O)NC6=O)c5)CC4)CC3)cn2cc1C(=O)Nc1cccc(C(F)(F)F)n1 (some centres unmarked) [Example 14]" value_reported="500 to 1000 nM"
compound="CC(C)Oc1cc2nn(C3CCN(C(=O)CC4(O)CCN(c5cc(F)c(NC6CCC(=O)NC6=O)cc5F)CC4)CC3)cc2cc1C(=O)Nc1cccc(C(F)F)n1 (centres unmarked) [Example 66]" value_reported="10 to 100 nM"
compound="CC(C)Oc1cc2nc([C@H]3CC[C@H](CN4CC5(CCN(c6ncc(N7CCC(=O)NC7=O)cc6F)CC5)C4)CC3)cn2cc1C(=O)Nc1cccn([C@H]2C[C@H]2F)c1=O [Example 179]" value_reported="< 10 nM"
compound="CC(C)Oc1cc2nc(C3CCN(C(=O)CC4(O)CCN(c5c(F)cc(N[C@H]6CCC(=O)NC6=O)cc5Cl)CC4)CC3)cn2cc1C(=O)Nc1cccc(C(F)F)n1 [Example 82]" value_reported="10 to 100 nM"
